Biological target: NLRP3 (Homo sapiens)
Sequence (Q96P20 whole entry): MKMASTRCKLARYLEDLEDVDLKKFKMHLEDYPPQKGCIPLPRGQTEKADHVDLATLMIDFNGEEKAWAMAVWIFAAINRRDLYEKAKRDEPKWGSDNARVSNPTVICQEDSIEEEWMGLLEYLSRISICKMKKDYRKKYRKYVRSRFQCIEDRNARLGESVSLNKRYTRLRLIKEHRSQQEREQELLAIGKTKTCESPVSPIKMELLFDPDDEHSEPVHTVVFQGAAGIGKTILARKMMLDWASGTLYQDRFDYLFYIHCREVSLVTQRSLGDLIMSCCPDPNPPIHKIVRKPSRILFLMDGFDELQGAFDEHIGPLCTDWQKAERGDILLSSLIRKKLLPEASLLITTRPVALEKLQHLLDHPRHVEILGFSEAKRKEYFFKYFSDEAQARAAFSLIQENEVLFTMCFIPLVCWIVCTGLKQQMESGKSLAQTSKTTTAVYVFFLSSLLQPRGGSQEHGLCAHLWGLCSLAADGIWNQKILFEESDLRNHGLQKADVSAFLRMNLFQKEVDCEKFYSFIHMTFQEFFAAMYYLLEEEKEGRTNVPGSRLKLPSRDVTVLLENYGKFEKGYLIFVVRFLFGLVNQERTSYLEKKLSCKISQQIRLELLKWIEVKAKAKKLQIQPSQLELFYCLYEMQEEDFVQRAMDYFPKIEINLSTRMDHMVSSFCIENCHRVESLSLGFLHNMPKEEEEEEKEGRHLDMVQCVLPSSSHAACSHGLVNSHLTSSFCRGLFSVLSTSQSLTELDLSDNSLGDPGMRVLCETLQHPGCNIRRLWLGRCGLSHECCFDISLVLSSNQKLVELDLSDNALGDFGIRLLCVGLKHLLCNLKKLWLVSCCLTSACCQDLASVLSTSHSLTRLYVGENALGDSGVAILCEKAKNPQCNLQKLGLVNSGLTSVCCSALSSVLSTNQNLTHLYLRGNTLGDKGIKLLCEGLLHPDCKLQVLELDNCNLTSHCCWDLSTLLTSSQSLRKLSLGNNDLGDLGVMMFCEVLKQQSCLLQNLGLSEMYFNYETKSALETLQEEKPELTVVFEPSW
Assay: Human whole blood IL1β release assay (LPS + nigericin, AlphaLisa IL-1β; HWB IC50)
Assay type: cell-based
Set-up: Human whole blood in Li-heparin tubes was obtained from healthy donors from a volunteer donor panel; from tissue; host or cells: human whole blood from healthy donors
Details: IL-1β release
Where a name gives a salt, the structure may show the parent alone.

{"columns": ["COMPOUND", "IC50"],
 "data": [
  ["CC(C)n1cnc(S(=O)(=O)NC(=O)Nc2c(-c3ccnc(C#N)c3)ccc3c2CCC3)n1 [Example 228, sodium salt]", "≤ 500 nM"],
  ["CC(C)n1ccc(S(=O)(=O)NC(=O)Nc2c(-c3ccnc(OC4CCCOC4)c3)ccc3c2CCC3)n1 (centres unmarked) [Example 288, sodium salt]", "≤ 5000 nM"],
  ["COc1cc(-c2ccc3c(c2NC(=O)NS(=O)(=O)c2cn(C(C)C)c(=O)cn2)CCC3)ccn1 [Example 73, ammonium salt]", "≤ 500 nM"],
  ["N#Cc1cc(-c2ccc3c(c2NC(=O)NS(=O)(=O)c2cnn(CC(F)F)c2)CCC3)ccn1 [Example 231, sodium salt]", "≤ 500 nM"],
  ["COc1cc(-c2ccc3c(c2NC(=O)NS(=O)(=O)c2ccnc(C(C)C)c2)CCC3)ccn1 [Example 178, sodium salt]", "≤ 5000 nM"],
  ["CC(C)c1cc(F)cc(-c2ccnc(C#N)c2)c1NC(=O)NS(=O)(=O)c1ccn(C(C)C)n1", "≤ 500 nM"],
  ["CC(C)n1ncc(S(=O)(=O)NC(=O)Nc2c(-c3ccnc(C#N)c3)ccc3c2CCC3)n1 [Example 260, sodium salt]", "≤ 5000 nM"],
  ["COc1cc(-c2cc(F)c3c(c2NC(=O)NS(=O)(=O)N(C)CC2CCCN2C)CCC3)ccn1 (centres unmarked)", "≤ 500 nM"],
  ["CC(C)(C#N)n1ccc(S(=O)(=O)NC(=O)Nc2c(-c3ccnc(OC(F)F)c3)ccc3c2CCO3)n1", "≤ 500 nM"],
  ["CCN(CC)CCCS(=O)(=O)NC(=O)Nc1c(-c2ccncc2)cc(F)c2c1CCC2", "≤ 500 nM"],
  ["Cc1cc(C)nc(S(=O)(=O)NC(=O)Nc2c(-c3ccnc(C#N)c3)cc(F)cc2C(C)C)n1", "≤ 5000 nM"],
  ["CC(C)c1cc(F)cc(-c2cccnc2)c1NC(=O)NS(=O)(=O)c1ccn(CCN(C)C)n1", "≤ 1000 nM"],
  ["COc1cc(-c2cc(F)cc(C(C)C)c2NC(=O)NS(=O)(=O)c2cc(N(C)C)cnn2)ccn1", "≤ 5000 nM"],
  ["CC(C)n1ccc(S(=O)(=O)NC(=O)Nc2c(-c3cccnc3)ccc3ccccc23)n1", "≤ 5000 nM"],
  ["CC(C)c1cc(F)cc(C2CCOCC2)c1NC(=O)NS(=O)(=O)c1cc(C(=O)N(C)C)n(C)n1 [Example 30, sodium salt]", "≤ 500 nM"],
  ["CCn1nc(S(=O)(=O)NC(=O)Nc2c(-c3ccnc(C#N)c3)cc(F)cc2C(C)C)cc1CN(C)C", "≤ 500 nM"],
  ["COc1cc(-c2ccc3c(c2NC(=O)NS(=O)(=O)c2ccc(CN(C)C)cc2)CCC3)ccn1 [Example 251, sodium salt]", "≤ 500 nM"],
  ["CCn1nc(S(=O)(=O)NC(=O)Nc2c(-c3cccc(C#N)c3)ccc3c2CCC3)cc1CN(C)C", "≤ 1000 nM"],
  ["COc1cc(-c2ccc3c(c2NC(=O)NS(=O)(=O)c2ccn(C4CCC4)n2)CCO3)c(F)cn1 [Example 281, sodium salt]", "≤ 500 nM"],
  ["O=C(Nc1c(-c2ccnc(OC(F)F)c2)ccc2c1CCC2)NS(=O)(=O)c1ccn(C2CC2)n1 [Example 262, sodium salt]", "≤ 1000 nM"],
  ["COc1cc(-c2ccc3c(c2NC(=O)NS(=O)(=O)c2ccc(C(=O)N(C)C)cc2)CCC3)ccn1 [Example 308, sodium salt]", "≤ 1000 nM"],
  ["CCN(CCCS(=O)(=O)NC(=O)Nc1c(-c2ccncc2)cc(F)c2c1CCC2)Cc1ccccc1", "≤ 5000 nM"],
  ["CC(C)n1ccc(S(=O)(=O)NC(=O)Nc2c(-c3ccnc(C#N)c3)cc(Cl)c3c2CCC3)n1 [Example 225, sodium salt]", "≤ 5000 nM"],
  ["COCCOc1cc(-c2ccc3c(c2NC(=O)NS(=O)(=O)c2ccn(C(C)C)n2)CCC3)ccn1 [Example 300, sodium salt]", "≤ 1000 nM"],
  ["CC(C)n1ccc(S(=O)(=O)NC(=O)Nc2c(-c3ccnc(OC(F)F)c3)ccc3c2CCC3)n1 [Example 237, sodium salt]", "≤ 1000 nM"],
  ["CC(C)c1cc(F)cc(-c2ccnc(N)c2)c1NC(=O)NS(=O)(=O)c1ccn(C(C)C)n1", "≤ 1000 nM"],
  ["Cc1cc(-c2ccc3c(c2NC(=O)NS(=O)(=O)c2ccn(C(C)C)n2)CCC3)ccn1 [Example 245, sodium salt]", "≤ 500 nM"],
  ["CC(C)n1ccc(S(=O)(=O)NC(=O)Nc2c(-c3cccnc3)cc(F)c3c2CCC3)n1", "≤ 5000 nM"],
  ["CCn1nc(S(=O)(=O)NC(=O)Nc2c(-c3cccnc3)cc(F)c3c2CCC3)cc1CN(C)C", "≤ 500 nM"]
]}
